Measured GI50 of individual entries
tested on: OVCAR-5; assay: NCI tumour cell line growth inhibition, 48 h
Calls of active or inactive are those of the source. Rule as the data show it: active = GI50 up to about 1.1 µM and inactive = higher.

CCOC(=O)NC(=O)c1cn(C2OC(COC(=O)CCCCCCCCC(=O)OCC3OC(n4cc(C(=O)NC(=O)OCC)c(=O)[nH]c4=O)C4OC(C)(C)OC34)C3OC(C)(C)OC32)c(=O)[nH]c1=O (centres undefined) ... > 100 µM (inactive)

# get_value(readout='GI50', item= O=c1cccccc1NCCNc1cccccc1=O )
> 100 µM (inactive)

Need GI50 of CC(C)(C)OC(=O)[C@@H]1ON2O[C@H](OC3CCCC3(c3ccccc3)c3ccccc3)C[C@H]3OC(=O)[C@@H]1[C@H]32 (some centres undefined) , thanks.
> 100 µM (inactive)

Which value of GI50 has been reported for COc1ccc(-c2c(C#N)c(=O)nc(SC)n2C2OCC(OC(C)=O)C(OC(C)=O)C2OC(C)=O)cc1 (centres undefined) in the records?
> 100 µM (inactive)

Any idea what its GI50 is? The compound is COc1ccc2nc(N/N=C/c3sccc3C)cc(C)c2c1
23.2 µM (inactive)

###

system: HT-29; experiment: NCI tumour cell line growth inhibition, 48 h
Active and inactive are the calls of the source. No stated cut-off is given here; in the data, active = GI50 up to about 1.1 µM and inactive = higher. Where a SMILES comes first, the peptide text is derived from it. The star is where a group is joined. Boc = CC(C)(C)OC(=O)*
Valid outcomes are listed here; reply with one: Y for active, N for inactive

Solved entries (count: 8):
CC(NC(=O)C(NC(=O)OC(C)(C)C)C(C)C)C(=O)NCC(=O)O (stereo not drawn) (Boc-Val-Ala-Gly-OH; configuration not given here) ... N
COc1cccc(C2c3cc4c(cc3OC(N3CCCC3)C2C)OCO4)c1OC (stereo not drawn) ... N
CSc1ccc(NC(=O)Nc2cc(C)ccn2)cc1 ... N
CCC(C)(O)c1cn(-c2cccc(S(=O)(=O)O)c2)nn1 (stereo not drawn) ... N
CCOC(=O)NC(=O)c1cn(C2OC(COC(=O)CCCCCCCCC(=O)OCC3OC(n4cc(C(=O)NC(=O)OCC)c(=O)[nH]c4=O)C4OC(C)(C)OC34)C3OC(C)(C)OC32)c(=O)[nH]c1=O (stereo not drawn) ... N
CC1S/C(=N\N=C2/C(=O)Nc3ccc(Br)cc32)N(C2CCCCC2)C1=O (stereo not drawn) ... N
COc1c2c(c(O)c3c4c(c(C)cc13)C1OC3(C(OC)OC5CC(C)(O)C(OC6CC(C)(O)C(O)C(C)O6)C(C)O5)OC1C(OC)(O4)C31CO1)C(=O)C(O)CC2OC1CC(C)(O)C(OC(C)=O)C(C)O1 (stereo not drawn) ... Y
COC(OC)[C@@H]1OC[C@@H](O)[C@@H]1n1cnc2c(N)ncnc21 ... N

Call for entry Nc1c2ccccc2nc2c1ccc1ncccc12 :
N

In this assay, the call recorded for O=C1NC(c2cccc3ccccc23)Nc2ccc(O)cc21 (stereo not drawn) was what?
N

Hey, what did the test say about COc1ccc(-c2onc(-c3c(C)cc(C)cc3C)c2C2=NCCCN2)cc1 ?
N

Outcome logged for COc1ccc(CC(=O)NCCc2ccc(OC)c(OC)c2OC)cc1 in this assay:
N

Each compound tested received a call. Report the one for O=[N+]([O-])c1ccc(/C=N/C2CCCCC2)cc1 .
N
